src = the RNAGym collection of RNA variant scans (doi:10.7554/elife.90254)

Each item that follows carries a reported self-cleavage.
B1: LINE1-mini (parent)
chain: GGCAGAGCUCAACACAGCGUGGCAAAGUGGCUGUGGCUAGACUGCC

Variants of: B1
protocol summary: self-cleavage, relative activity (ratio to wild type); higher = more cleavage; in vitro, sequencing; the parent is a self-cleaving ribozyme

Sample records with self-cleavage:
| sequence variant | result |
| --- | --- |
| G1U C15U | 0.21 |
| C31A U32C | 0.07 |
| A11C G21U | 0.1 |
| A16G A39U | 0.14 |
| C18G A26C | 0.86 |
| G22U C42G | 0.04 |
| G1U A41G | 0.1 |
| G1A U34G | 0.29 |
| A4G U9C | 0.02 |
| G1A G35A | 0.2 |

Read off the recorded self-cleavage for U9G G40C
0.08

Read off the recorded self-cleavage for A4G C42A
0.09

Read off the recorded self-cleavage for G27C G36A
0.35

Read off the recorded self-cleavage for G19A U43C
0.18

Read off the recorded self-cleavage for G17A G44A
0.04

Read off the recorded self-cleavage for G2C G5U
0.03

Read off the recorded self-cleavage for C8U U28G
0.13

Read off the recorded self-cleavage for A4G U38C
0.31

Read off the recorded self-cleavage for G2A G30U
1.4

Read off the recorded self-cleavage for U28G G40U
0.09

Read off the recorded self-cleavage for G22U C31A
0.2

Read off the recorded self-cleavage for C3A G22C
0.58

Read off the recorded self-cleavage for A25G U38C
0.14

Read off the recorded self-cleavage for A16U G33U
0.14
